# measured target: UniProt:O75762
# procedure details: Alternative TRPA1 Ca2+ fluorometry assay (hTRPA1/TREx-HEK293 cells, Fluo-4, FDSS 6000)
# Format: cell-based
# Design: expressed in transfected cells
# test conditions: Fluo-4-AM, agonist 6,11-dihydro-5H-dibenzo[b,e]azepine-10-carboxylic acid methyl ester 25 nM, procedure used for Examples 184, 190 to 192, 194 to 316
pIC50: −log10 of the molar value.
assay endpoint: pIC50

Enquiry: System UniProt:O75762. Read-out pIC50. Item O=C(NCc1cc(-c2ccc(C(F)(F)F)cc2)nc(N2CCN(c3ccccc3F)CC2)n1)[C@@H]1CCCN1S(=O)(=O)c1cc(Cl)ccc1F . Report value.
Return: < 5.00

Enquiry: System UniProt:O75762. Read-out pIC50. Item O=C(NCc1cc(-c2ccc(Br)cc2)nc(NCCc2ccccn2)n1)[C@@H]1CCCN1S(=O)(=O)c1ccc(F)cc1 . Report value.
Return: 5.76

Enquiry: System UniProt:O75762. Read-out pIC50. Item CC(=O)c1ccc(N2CCN(c3nc(CNC(=O)[C@@H]4CCCN4S(=O)(=O)c4ccc(F)cc4)cc(-c4ccc(C(F)(F)F)cc4)n3)CC2)cc1 . Report value.
Return: 5.93

Enquiry: System UniProt:O75762. Read-out pIC50. Item O=C(NCc1cc(-c2ccc(C(F)(F)F)cc2)nc(NCCN2CCOCC2)n1)[C@@H]1CCCN1S(=O)(=O)c1ccc(F)cc1 . Report value.
Return: ~6.35

Enquiry: System UniProt:O75762. Read-out pIC50. Item C#CCNc1nc(CNC(=O)[C@@H]2CCCN2S(=O)(=O)c2ccc(F)cc2)cc(-c2ccc(C(F)(F)F)cc2)n1 . Report value.
Return: ~6.39

Enquiry: System UniProt:O75762. Read-out pIC50. Item CCOC(=O)C1CCN(c2nc(CNC(=O)[C@@H]3CCCN3S(=O)(=O)c3ccc(F)cc3)cc(-c3ccc(C(F)(F)F)cc3)n2)CC1 (racemic) . Report value.
Return: 6.24

Enquiry: System UniProt:O75762. Read-out pIC50. Item O=C(NCc1cc(-c2ccc3c(c2)OCO3)nc(NCCc2ccccn2)n1)[C@@H]1CCCN1S(=O)(=O)c1ccc(F)cc1 . Report value.
Return: ~5.19

Enquiry: System UniProt:O75762. Read-out pIC50. Item O=C(NCc1cc(-c2ccc(Cl)cc2Cl)nc(N2CCN(c3ccccc3F)CC2)n1)[C@@H]1CCCN1S(=O)(=O)c1ccc(F)cc1 . Report value.
Return: 6.07

Enquiry: System UniProt:O75762. Read-out pIC50. Item O=C(NCc1cc(-c2ccc(C(F)(F)F)cc2)nc(N2CCN(c3ccccc3F)CC2)n1)[C@@H]1CCCN1S(=O)(=O)c1cccc(Cl)c1 . Report value.
Return: < 5.00

Enquiry: System UniProt:O75762. Read-out pIC50. Item O=C(NCc1cc(-c2ccc(Br)cc2)nc(NCCc2ccc(Cl)cc2Cl)n1)[C@@H]1CCCN1S(=O)(=O)c1ccc(F)cc1 . Report value.
Return: 5.69

Enquiry: System UniProt:O75762. Read-out pIC50. Item O=C(NCc1cc(-c2ccc(F)c(Cl)c2)nc(N2CCN(c3ccccc3F)CC2)n1)[C@@H]1CCCN1S(=O)(=O)c1ccc(F)cc1 . Report value.
Return: < 5.00

Enquiry: System UniProt:O75762. Read-out pIC50. Item O=C(NCc1cc(-c2ccc(C(F)(F)F)cc2)nc(N2CCC[C@H]2CO)n1)[C@@H]1CCCN1S(=O)(=O)c1ccc(F)cc1 . Report value.
Return: ~5.71

Enquiry: System UniProt:O75762. Read-out pIC50. Item O=C(NCc1cc(-c2ccc(C(F)(F)F)cc2)nc(N2CCN(c3ccccc3F)CC2)n1)[C@@H]1CCCN1S(=O)(=O)c1ccc(F)c(F)c1F . Report value.
Return: 5.57

Enquiry: System UniProt:O75762. Read-out pIC50. Item N#Cc1ccc(-c2cc(CNC(=O)[C@@H]3CCCN3S(=O)(=O)c3ccc(F)cc3)nc(N3CCN(c4ccccc4F)CC3)n2)cc1 . Report value.
Return: 5.80

Enquiry: System UniProt:O75762. Read-out pIC50. Item O=C(NCc1cccc(-c2ccc(C(F)(F)F)cc2)n1)[C@@H]1CCCN1S(=O)(=O)c1ccc(Cl)s1 . Report value.
Return: ~5.97

Enquiry: System UniProt:O75762. Read-out pIC50. Item O=C(NCc1cc(-c2ccc(C(F)(F)F)cc2)nc(N2CCN(c3ccccc3F)CC2)n1)[C@@H]1CCCN1S(=O)(=O)c1ccccc1F . Report value.
Return: 5.21

Enquiry: System UniProt:O75762. Read-out pIC50. Item O=C(NCc1cc(-c2ccc(C(F)(F)F)cc2)nc(NC2CCc3ccccc32)n1)[C@@H]1CCCN1S(=O)(=O)c1ccc(F)cc1 (stereo partly shown) . Report value.
Return: ~6.45

Enquiry: System UniProt:O75762. Read-out pIC50. Item Cc1cc(C)c(S(=O)(=O)N2CCC[C@H]2C(=O)NCc2cc(-c3ccc(C(F)(F)F)cc3)nc(N3CCN(c4ccccc4F)CC3)n2)c(C)c1 . Report value.
Return: < 5.00

* * *

# measured target: Human TRPA1 (Homo sapiens, UniProt O75762)
# Sequence (O75762 whole entry): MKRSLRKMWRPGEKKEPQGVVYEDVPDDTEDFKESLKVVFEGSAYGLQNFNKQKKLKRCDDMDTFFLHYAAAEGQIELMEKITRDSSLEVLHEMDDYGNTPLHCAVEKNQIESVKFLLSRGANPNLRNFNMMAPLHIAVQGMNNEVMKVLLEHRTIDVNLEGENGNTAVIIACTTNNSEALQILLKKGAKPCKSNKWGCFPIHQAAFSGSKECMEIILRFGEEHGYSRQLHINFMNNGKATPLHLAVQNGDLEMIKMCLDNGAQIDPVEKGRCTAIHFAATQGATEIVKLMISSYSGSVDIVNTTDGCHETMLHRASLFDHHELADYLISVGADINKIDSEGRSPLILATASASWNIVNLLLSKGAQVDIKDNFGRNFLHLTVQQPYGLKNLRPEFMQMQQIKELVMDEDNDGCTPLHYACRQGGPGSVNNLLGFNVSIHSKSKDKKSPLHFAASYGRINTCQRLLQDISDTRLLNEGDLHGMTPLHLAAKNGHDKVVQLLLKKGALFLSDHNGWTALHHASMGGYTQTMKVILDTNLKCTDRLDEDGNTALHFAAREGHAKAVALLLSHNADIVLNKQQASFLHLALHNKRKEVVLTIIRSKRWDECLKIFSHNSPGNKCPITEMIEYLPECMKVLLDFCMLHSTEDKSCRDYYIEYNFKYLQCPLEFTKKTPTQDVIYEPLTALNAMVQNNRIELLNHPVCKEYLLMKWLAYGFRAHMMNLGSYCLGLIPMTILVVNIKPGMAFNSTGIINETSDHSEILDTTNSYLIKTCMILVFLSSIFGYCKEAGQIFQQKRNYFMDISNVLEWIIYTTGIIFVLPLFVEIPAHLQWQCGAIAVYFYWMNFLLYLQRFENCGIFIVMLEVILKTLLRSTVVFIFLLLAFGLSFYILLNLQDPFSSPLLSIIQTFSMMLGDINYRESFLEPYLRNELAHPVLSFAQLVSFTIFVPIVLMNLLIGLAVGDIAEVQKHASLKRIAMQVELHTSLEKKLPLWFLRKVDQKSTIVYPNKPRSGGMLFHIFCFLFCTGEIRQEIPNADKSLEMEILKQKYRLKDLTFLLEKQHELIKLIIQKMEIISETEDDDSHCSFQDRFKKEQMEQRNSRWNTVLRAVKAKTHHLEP
# procedure details: Assay 1: In vitro cellular testing of TRPA1 modulation (CHO-TREx, Fluo-3 calcium fluorescence, AITC agonist)
# Assay type: cell-based
# Set-up: expressed in transfected cells; host or cells: CHO-TREx cells (Invitrogen), vector pcDNA4/TO
# test conditions: CHO-TREx cells expressing human TRPA1; Fluo-3 fluorescence (FLIPR/Tetra); agonist 15 μM allyl isothiocyanate (AITC); 30 minute antagonist incubation
pIC50: −log10 of the molar value.
assay endpoint: pIC50

INSERT INTO assay_data (molecule, reported_value) VALUES
  ('CC1CCCN1c1cc(CNC(=O)[C@@H]2CCCN2S(=O)(=O)c2ccc(Cl)s2)cc(-c2ccc(C(F)(F)F)cc2)n1 (stereo partly drawn)', 7.14);

1 = CC(C)COc1nc(CNC(=O)[C@@H]2CCCN2S(=O)(=O)c2ccc(F)cc2)cc(-c2ccc(C(F)(F)F)cc2)n1
2 = CC(C)N1CCC(CN(C)c2nc(CNC(=O)[C@@H]3CCCN3S(=O)(=O)c3ccc(Cl)s3)cc(-c3ccc(C(F)(F)F)cc3)n2)CC1
Enquiry: Hi team, can someone confirm which has the larger pIC50: 1 or 2 ? Thanks. The response must carry the label of the picked entry.
Return: 1
(1: 7.80, 2: 5.59)

1 = O=C(NCc1cc(-c2ccc(C(F)(F)F)cc2)ccn1)[C@@H]1C=CCN1S(=O)(=O)c1ccc(Cl)s1
2 = CC(C)CN1CCN(c2cc(CNC(=O)[C@@H]3C=CCN3S(=O)(=O)c3ccc(Cl)s3)cc(-c3ccc(C(F)(F)F)cc3)n2)CC1
Enquiry: Hi team, can someone confirm which has the larger pIC50: 1 or 2 ? Thanks. The response must carry the label of the picked entry.
Return: 1
(1: 7.66, 2: 7.02)

* * *

# measured target: Human TRPA1 (Homo sapiens, UniProt O75762)
# procedure details: Assay 1: In vitro cellular testing of TRPA1 modulation (CHO-TREx, Fluo-3 calcium fluorescence, AITC agonist)
# Assay type: cell-based
# Set-up: expressed in transfected cells; host or cells: CHO-TREx cells (Invitrogen), vector pcDNA4/TO
# test conditions: CHO-TREx cells expressing human TRPA1; Fluo-3 fluorescence (FLIPR/Tetra); agonist 15 μM allyl isothiocyanate (AITC); 30 minute antagonist incubation
assay endpoint: IC50 (µM)

Worked set:
INSERT INTO measurements (chemical_string, measurement_units, reported_value) VALUES
  ('O=C(NCc1cc(-c2ccc(C(F)(F)F)cc2)ncn1)[C@@H]1CCCN1S(=O)(=O)c1ccccc1F', 'µM', 0.401),
  ('O=C(NCc1cccc(-c2ccc(C(F)(F)F)cc2)c1)[C@@H]1CCCN1S(=O)(=O)c1ccc(F)cc1', 'µM', 0.015);

P = O=C(NCc1cc(-c2ccc(C(F)(F)F)cc2)nc(OCC(F)(F)F)n1)[C@@H]1CCCN1S(=O)(=O)c1ccc(Cl)s1
Q = O=C(NCc1cccc(-c2cccc(OC(F)(F)F)c2)c1)[C@@H]1CCCN1S(=O)(=O)c1ccc(F)cc1
Enquiry: Hi team, can someone confirm which has the larger IC50: P or Q ? Thanks. The response must carry the label of the picked entry.
Return: Q

* * *

# measured target: Human TRPA1 (Homo sapiens, UniProt O75762)
# procedure details: Assay 1: In vitro cellular testing of TRPA1 modulation (CHO-TREx, Fluo-3 calcium fluorescence, AITC agonist)
# Type: cell-based
# Set-up: expressed in transfected cells; host or cells: CHO-TREx cells (Invitrogen), vector pcDNA4/TO
# test conditions: CHO-TREx cells expressing human TRPA1; Fluo-3 fluorescence (FLIPR/Tetra); agonist 15 μM allyl isothiocyanate (AITC); 30 minute antagonist incubation
assay endpoint: IC50 (nM)

Worked set:
INSERT INTO measurements (molecule, measurement_units, reported_value) VALUES
  ('O=C(NCc1cccc(-c2ccc(N3CCOCC3)cc2)c1)[C@@H]1CCCN1S(=O)(=O)c1ccc(F)cc1', 'nM', 1630),
  ('CC(Nc1nc(CNC(=O)[C@@H]2CCCN2S(=O)(=O)c2ccc(F)cc2)cc(-c2ccc(C(F)(F)F)cc2)n1)c1ccccn1 (stereo partly drawn)', 'nM', 34),
  ('C[C@@H]1CCCN1c1nc(CNC(=O)[C@@H]2CCCN2S(=O)(=O)c2ccc(F)cc2)cc(-c2ccc(C(F)(F)F)cc2)n1', 'nM', 16),
  ('O=C(NCc1cc(NCc2ccccn2)nc(-c2ccc(C(F)(F)F)cc2)c1)[C@@H]1CC(F)(F)CN1S(=O)(=O)c1ccc(F)cc1', 'nM', 2090),
  ('CNc1cc(CNC(=O)[C@@H]2CC(F)(F)CN2S(=O)(=O)c2ccc(Cl)s2)cc(-c2ccc(C(F)(F)F)cc2)n1', 'nM', 2220),
  ('O=C(NCc1cc(-c2ccc(C(F)(F)F)cc2)nc(-c2ccncc2)n1)[C@@H]1CCCN1S(=O)(=O)c1ccc(F)cc1', 'nM', 229),
  ('CC(Nc1cc(CNC(=O)[C@@H]2CCCN2S(=O)(=O)c2ccc(Cl)s2)cc(-c2ccc(C(F)(F)F)cc2)n1)c1cccnc1 (stereo partly drawn)', 'nM', 481),
  ('CNc1cc(CNC(=O)[C@@H]2C=CCN2S(=O)(=O)c2ccc(Cl)s2)cc(-c2ccc(C(F)(F)F)cc2)n1', 'nM', 380),
  ('O=C(NCc1cccc(-c2ccc(Cl)nc2)c1)[C@@H]1CCCN1S(=O)(=O)c1ccc(F)cc1', 'nM', 73);

I = CN1CCC(CNc2nc(CNC(=O)[C@@H]3CCCN3S(=O)(=O)c3ccc(F)cc3)cc(-c3ccc(C(F)(F)F)cc3)n2)C1 (stereo partly drawn)
II = O=C(NCc1cc(-c2ccc(C(F)(F)F)cc2)ncn1)[C@@H]1CCCN1S(=O)(=O)c1ccsc1
Enquiry: Between I and II , which one shows the smaller IC50 number? The response must carry the label of the picked entry.
Return: II
